The origin of these recorded values is paper PMC9911399.

Molecular target: T1, RBFOX1 RRM RbFoxmut (Fox-RRM*) (Homo sapiens, UniProt Q9NWB1 109-208, R118D;E147R;N151S;E152T)
T1 sequence: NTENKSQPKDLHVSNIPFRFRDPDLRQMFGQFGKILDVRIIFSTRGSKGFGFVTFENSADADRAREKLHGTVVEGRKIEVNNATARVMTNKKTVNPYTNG
Experiment: EMSA; HiTS-Eq, 1 nM pool, 10 min; buffer printed only for the single-RNA assays: 10 mM Tris pH 7.5, 150 mM NaCl, 3.4 mM EDTA, 0.001% NP-40, 30 C
Details: tags: His6 N-terminal (pET28a); label: 5' 32P
Whole data set: some 16,000 sequences, median “ka relative to ugcaugu” near 0.096, cut for the highest 2% near 0.35. The sample holds the highest values, similar sequences and a random draw of the others, so the mix is not that of the screen.
VALUE KIND: binding signal

# BINDER, binding signal
measured = [
    ("GAGUUGU (DNA:RNA) RNA: GGGAGACCGGAAUUCAGAUUGUCCGAGUUGUUUAAAUCCCGUCGUAGCCACCA DNA 1: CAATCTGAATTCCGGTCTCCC DNA 2: TGGTGGCTACGACGGGATT", "0.138 KA relative to UGCAUGU"),
]

// lookup binding signal for GCCGUUU (DNA:RNA) RNA: GGGAGACCGGAAUUCAGAUUGUCCGCCGUUUUUAAAUCCCGUCGUAGCCACCA DNA 1: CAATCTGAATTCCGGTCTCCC DNA 2: TGGTGGCTACGACGGGATT
0.0818 KA relative to UGCAUGU

// lookup binding signal for AGUCGCC (DNA:RNA) RNA: GGGAGACCGGAAUUCAGAUUGUCCAGUCGCCUUAAAUCCCGUCGUAGCCACCA DNA 1: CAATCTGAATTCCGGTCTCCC DNA 2: TGGTGGCTACGACGGGATT
0.0636 KA relative to UGCAUGU

// lookup binding signal for UUGGGAA (DNA:RNA) RNA: GGGAGACCGGAAUUCAGAUUGUCCUUGGGAAUUAAAUCCCGUCGUAGCCACCA DNA 1: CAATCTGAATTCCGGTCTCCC DNA 2: TGGTGGCTACGACGGGATT
0.14 KA relative to UGCAUGU

// lookup binding signal for GUUUGUG (DNA:RNA) RNA: GGGAGACCGGAAUUCAGAUUGUCCGUUUGUGUUAAAUCCCGUCGUAGCCACCA DNA 1: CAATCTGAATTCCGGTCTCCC DNA 2: TGGTGGCTACGACGGGATT
0.462 KA relative to UGCAUGU

// lookup binding signal for GUCCACG (DNA:RNA) RNA: GGGAGACCGGAAUUCAGAUUGUCCGUCCACGUUAAAUCCCGUCGUAGCCACCA DNA 1: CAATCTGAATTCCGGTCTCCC DNA 2: TGGTGGCTACGACGGGATT
0.114 KA relative to UGCAUGU

// lookup binding signal for GCACGUG (DNA:RNA) RNA: GGGAGACCGGAAUUCAGAUUGUCCGCACGUGUUAAAUCCCGUCGUAGCCACCA DNA 1: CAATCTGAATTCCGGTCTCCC DNA 2: TGGTGGCTACGACGGGATT
0.324 KA relative to UGCAUGU

// lookup binding signal for CGUUUUG (DNA:RNA) RNA: GGGAGACCGGAAUUCAGAUUGUCCCGUUUUGUUAAAUCCCGUCGUAGCCACCA DNA 1: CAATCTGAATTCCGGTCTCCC DNA 2: TGGTGGCTACGACGGGATT
0.133 KA relative to UGCAUGU

// lookup binding signal for GCACGAG (DNA:RNA) RNA: GGGAGACCGGAAUUCAGAUUGUCCGCACGAGUUAAAUCCCGUCGUAGCCACCA DNA 1: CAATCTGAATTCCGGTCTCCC DNA 2: TGGTGGCTACGACGGGATT
0.405 KA relative to UGCAUGU

// lookup binding signal for CUUGUCC (DNA:RNA) RNA: GGGAGACCGGAAUUCAGAUUGUCCCUUGUCCUUAAAUCCCGUCGUAGCCACCA DNA 1: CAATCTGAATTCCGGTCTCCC DNA 2: TGGTGGCTACGACGGGATT
0.107 KA relative to UGCAUGU

// lookup binding signal for GCGCACG (DNA:RNA) RNA: GGGAGACCGGAAUUCAGAUUGUCCGCGCACGUUAAAUCCCGUCGUAGCCACCA DNA 1: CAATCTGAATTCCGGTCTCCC DNA 2: TGGTGGCTACGACGGGATT
0.397 KA relative to UGCAUGU

// lookup binding signal for GCACGUC (DNA:RNA) RNA: GGGAGACCGGAAUUCAGAUUGUCCGCACGUCUUAAAUCCCGUCGUAGCCACCA DNA 1: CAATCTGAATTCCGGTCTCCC DNA 2: TGGTGGCTACGACGGGATT
0.117 KA relative to UGCAUGU

// lookup binding signal for UGGGUAU (DNA:RNA) RNA: GGGAGACCGGAAUUCAGAUUGUCCUGGGUAUUUAAAUCCCGUCGUAGCCACCA DNA 1: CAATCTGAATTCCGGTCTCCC DNA 2: TGGTGGCTACGACGGGATT
0.172 KA relative to UGCAUGU

// lookup binding signal for CCACUGA (DNA:RNA) RNA: GGGAGACCGGAAUUCAGAUUGUCCCCACUGAUUAAAUCCCGUCGUAGCCACCA DNA 1: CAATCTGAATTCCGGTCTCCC DNA 2: TGGTGGCTACGACGGGATT
0.123 KA relative to UGCAUGU

// lookup binding signal for GCACGAA (DNA:RNA) RNA: GGGAGACCGGAAUUCAGAUUGUCCGCACGAAUUAAAUCCCGUCGUAGCCACCA DNA 1: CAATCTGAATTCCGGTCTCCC DNA 2: TGGTGGCTACGACGGGATT
0.256 KA relative to UGCAUGU

// lookup binding signal for ACGUCCG (DNA:RNA) RNA: GGGAGACCGGAAUUCAGAUUGUCCACGUCCGUUAAAUCCCGUCGUAGCCACCA DNA 1: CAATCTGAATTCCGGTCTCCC DNA 2: TGGTGGCTACGACGGGATT
0.121 KA relative to UGCAUGU

// lookup binding signal for GUCGUGU (DNA:RNA) RNA: GGGAGACCGGAAUUCAGAUUGUCCGUCGUGUUUAAAUCCCGUCGUAGCCACCA DNA 1: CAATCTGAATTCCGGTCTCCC DNA 2: TGGTGGCTACGACGGGATT
0.187 KA relative to UGCAUGU
